# credit: PubChem BioAssay AID602449

# protocol_text: blockers of Ca2+-induced mitochondrial swelling – biochemical, isolated mouse mitochondria, absorbance, primary screen (AID 602449);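 note: 0% = DMSO wells given calcium and 100% = 1 mM EGTA wells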
# condition_label: 30 min, at 10 µM, active compounds read high
In all, about 360,000 compounds went through this assay and about 5,000 (1.4%) were called active. Only a selection was taken, and actives are over-represented in it overall.
Record form. Attribute: inhibition. Fill in for each entry.
One number for each entry, in %.

Solved cases (3 shown):
compound | assay_readout | reading_unit | test_value
Fc1cc(F)c2nc(Nc3nc4c(F)cccc4s3)sc2c1 | inhibition | % | 94.3
O=S1(=O)CC(N2CCC(Cc3ccccc3)CC2)CN1Cc1ccccc1 (stereo unspecified) | inhibition | % | 0.9
Cc1ccc(C)c(NC(=O)COC(=O)c2nn(C)c(=O)c3ccccc23)c1 | inhibition | % | 1.4

Each compound below has a reported value. Please supply its inhibition.
1. Cc1nc2scc(-c3cccs3)c2c(=O)n1N
2. Fc1ccc2nc(Nc3nc4c(s3)CCCC4)sc2c1
3. O=[N+]([O-])c1ccc(Sc2n[nH]c(-c3ccco3)n2)nc1

[-3.1, 5.3, -1.5]
